measurement.protocol: yeast display, Sf9 membrane polyspecificity reagent, FACS + sequencing; frameworks hold sequencing errors
reported.metric: polyreactivity (PSR sort gate)

seq.string	value.measured
QVQLVESGGGLVQAGGSLRLSCAASGSIFRYNTMGWYRQAPGKERELVASIRIGGSTYYADSVKGRFTISRDNAKNTVYLQMNSLKPEDTAVYYCAVRPYRSAGGSVTRGAYYYWGQGTQVTVSS	high polyreactivity
QVQLVESGGGLVQAGGSLRLSCAASGSTFNYYTMGWYRQAPGKERELVAAISGRGSITYYADSVKGRFTISRDNAKNTVYLQMNSLKPEDTAVYYCNARYGRWQGSSGEHDYWGQGTQVTVSS	high polyreactivity
QVQLVESGGGLVQAGGSLRLSCAASGFTFFYYAMGWYRQAPGKERELVASISWSGGSTYYADSVKGRFTISRDNAKNTVYLQMNSLKPEDTAVYYCAADVPFGGDYWGQGTQVTVSS	low polyreactivity
QVQLVESGGGLVQAGGSLRLSCAASGLTVYYYAMGWYRQAPGKERELVASISRSGGSTYYADSVKGSFTISRDNAKNTVYLQMNSLKPEDTAVYYCNVSVYRCTVKGTFDMDHWGQGTQVTVSW	high polyreactivity
QVQLVESGGGLVQAGGSLRLICAASGSTFFDYAMGGYRQAPGKEREFVADIYSNGGSTYYADSVKGRFTFSRDNAKNSVYLQMNSLKPEDTAGYYCAAVLRPRQGRRYDYWGQGTQVTVSS	low polyreactivity
QVQLVESGGGLVQAGGSLRLSCAASGSTFKVNDMGWYRQAPGKERELVAAIDKSGGTTYYADSVKGRFTISRDNAKNTVYLQMNSLKPEDTAVYYCAADVIYEMDYWGQGTQVTVSS	low polyreactivity
QVQLVESGGGLVQAGGSLRLSCAASGRTFSRNTMGWYRQAPGKERELVAAIRSGGRTDYADSVKGRFTISRDNAKNTVYLQMNSLKPEDTAVYYCATVAGVSRWRGGYWGQGTQVTVSS	low polyreactivity
QVQLVESGGGLVQAGGSLRLSCAASGRIYYWYDMGWYRQAPGKERELVAAISWSGGSTSYADSVKGRFTISRDNAKNTVYLQMNSLKPEDTAVYYCNADLTQYLGPVYEYGYWGQGTQVTVSS	low polyreactivity
QVQLVESGGGLVQAGGSLRLSCSASGYTFSSYGMGWYRQAPGKERELVAAITGSTGTTYYADSVQGRFTISRDNAKNTVYLQMISLKPEDTAVYYCAAEYQSYPWYDYWGQGTQVTVSS	high polyreactivity
QVQLVESGGGLVQAGGSLRLSCAASGRTINRYAMGWYRQAPGKERELVAVITSDGRTNYADSVKGRFTISRDNAKNTVYLQMNSLKPEDTAVYYCNKRSALSFVYDFDYWGQGTQVTVSS	low polyreactivity
QVQLVESGGGLVQAGGSLRLSCAASGRTFRYYTMGWYRQAPGKERELVAAISRGGRTYYADSVKGRFTISRDNGKNTVYLQMNSLKPEDTAVYNCAAQLFREYYYWGHGTQVTVSS	high polyreactivity
QVQLVESGGALVQAGGSLRLSCAASGSIFCYYAMGWYRQAPGKERELVAVINSGGRTNYADSVKGRFTISRDNAKNTVYLQMNSLKPEDTEVYYCAAQGYFVDRAGRYYRGDYWGQGTQVTVSS	high polyreactivity
QVQLVESGGGLVQAGGSLRLSCAGSGGIIGSNAMGWYRQAPGKERELVAAINTRGGRTYYADSVKWRFTISRDNAKNTVYLQMNILKPEDTAVYYCATVSYSSRRDRYDYWGQGTQVTVSS	high polyreactivity
QVQLVESGGGLVQAGGSLRLSCAASGLTFYYYAMGWYRQAPGKERELVAAISIGGSTDYADSAKGRFTISRDNAKNTVYLQMNRLKPEDTAVYYCNVDDNSEYDYWGQGTQVTVSS	low polyreactivity
QVQLVESGGGLVQAGGSLRLSCAASGLIFVKYAMGWYRQAPGKERELVADITSTGGSTYYADSVKGRFTISRDNAKNTVYLQMNSLKPEDTAVYYCATDYGYYDYWGQGTQVTVSS	low polyreactivity
QVQLVESGGGLVQAGGSLRLSCAASGFTFANNAMGWYRQAPGKERELVAAITSSGTRTYYADSVKGRFTISRDNAKNTVYLQMNSLKPEDTAVYYCAADKPGRPSRMYYWGQGTQVTVSS	high polyreactivity
QVQLVESGGGLVQAGGSLRLSCAASGFTFSYYAMGWYRQAPGKERELVAAITSSAGSTYYADSVKGRFTISRDNAKNTVYLQMNSLKPEDTAVYYCNAVYSKLNGGYDYWGQGTQVTVSS	low polyreactivity
QVQLVESGGGLVQAGGSLRLSCAASGFIFSNYAMGWYRQAPGKERELVAAISRSGGSTYYADSVKGRFTISRDNAKNTVYLQMNSLKPEDTAVYYCAARHAPILGDHGMKYWGQGTQVTVSS	high polyreactivity
QVQLVESGGGLVQAGGSLRLSCAASGSIFKPYAMGWYRQAPGKERELVAAISYSGGSTYYADSVKGRFTISRDNAKNSVYLQMNSLKPEDTAVYYCAKRSTSRGYDYWGQGTQVTVSS	high polyreactivity
QVQLVESGGGLVQAGGSLRLSCAASGRIFTDNVMGWYRQAPGKERELVAAITRRGGSTYYADSVKGRFTISRDNAKNTVYLQMNSLKPEDSAVYYCNARGRLYGHLYDYWGQGTQVTVSS	low polyreactivity
QVQHVESGGGLVQAGGSLRLSCAASGRTFRKNAMGWYRQAPGKERELVAAITGSSGTTYYADSVKGRFTISRDNAKNTVYLQMNSLKPEDTAVYYCATTVGDPGRRYYYWGQGTQVTVSS	high polyreactivity

---

measurement.protocol: yeast display, Sf9 membrane polyspecificity reagent, FACS + sequencing; frameworks hold sequencing errors
reported.metric: polyreactivity (PSR sort gate)

seq.string	reported.metric	value.measured
QVQLVESGGGLVQAGGSLRFSCAASGSTVYSYAMGWYRQAPGKERELVAAITRGGRTYYADSVKGRFTISRDNAKNTVYFKMNSLKPEDTAVYSCKVVTKFTGRGYDYWGQGSQVTVSS	polyreactivity (PSR sort gate)	high polyreactivity
QVHLVESGGGLVQAGGSLRLSCAASGSIFTRYVMGWYRQAPGKERELVAAISWSGGSTYYADSVKGRFTISRDNAKNTVYLQMNSLKPEDTAVYYCAAYYWYWSAAWWDEGEMEYWGQGTQVTVSS	polyreactivity (PSR sort gate)	high polyreactivity

---

measurement.protocol: yeast display, Sf9 membrane polyspecificity reagent, FACS + sequencing; frameworks hold sequencing errors

seq.string	polyreactivity (PSR sort gate)
QVQLVESGGGLVQAGGSLRLSCAASGIIFSSYAMGWYRQAPGKERELVAAISRRSGSTYYADSVKGRFTISRDNAKNTVYLQMNSLKPEDTAVYYCNKLPGTPRSLATGDYWGQGTQVTVSS	high polyreactivity
QVQLVESGGGLVQAGGSLRLSCAASGFTLTGNAMGWYRQAPGKERELVAAISRNGGSTFYADSVKGRFTISRDNAKNTVYLQMNSLKPEDTAVYYCNASRYRHSAYKYDSWGQGTQVTVSS	high polyreactivity
QVQLVESGGGLVQAGGSLRLSCAASGSTFWYYAMGWYRQAPGKERELVATITTSGGNTYYADSVKGRFTISRDNAKNTVYLQMNSLKPEDTAVYYCAARRYRASSRGYGYWGQGTQVTVSS	high polyreactivity
QVQLVESGGGLVQAGGSLRLSCAASGSIFGRYAMGWYRQAPGKERELVASIYSSGSTYYADSVKGRFTISRDNAKNTVYLQMNSLKPEDTAVYYCAAQISVWGYRVGYTKYYYWGQGTQVTVSS	high polyreactivity
PVQLVESGGGLVQAGGSLRLSCAAAGLTFPPNAMGWYRQAPGKERELVADSGGSTNYADSVKGRFTISRDNAKNTVYLQMNSLNPEDTAVYYCAVPPYSDGQWDDYWGQGTQVTVSS	low polyreactivity
QVQLVESGGGLVQAGGSLRLSCAASGSIFDYYAMGWYRQAPGKERELVAAISTSTSSTYYADSVKGRFTISRDNAKNTVYLQMNSLKPEDTAVYYCAAEGESQPESPGYDYWGQGTQVTVSS	low polyreactivity
QVQLVESGGGLVQAGGSLRLSCAASGRIFGYYAMGWYRQAPGTERELVASIRRGTRTNYADSVKGRFTISRDNAKNTVYLQMNSLKPEDTAVYYCAATRFQFTTTPWYDYWGQGTQVTVSS	high polyreactivity
QVQLVESGGGLVQAGGSLRLSSAASGFTFSGYAMGWYRQAPVKERELVAAISSSGASTYYADSVKGRFTISRDNAKNTVYLQIHSLKPEDTAVYYCAAGTRLSDGYYWGQGTQVTVSS	high polyreactivity
QVQLVESGGGLVQAGGSLRLSCAASGRTFSGYAMGWYRQAPGKERELVAAISNSGGRTYYADSVKGRFTISRDNAKNTDYLQMNSLKPEDTAVYYSNAVSYWRYDYWGQGTQVTVSS	high polyreactivity
QVQLVESGGGLVQAGGSLRLSCASSGFTFTYNVMGWYRQAPGKERELVAAISWSGTSTSYADSVKGRFTISRDNAKNTVYLQMNSLNPEDTAVYYCAVQRKSSKRAFRYGYWGQGTQVTVSS	high polyreactivity
QVQLVESAAGLVQAGGSLRLSCAASGIIFSKYAMGWYRQAPGKERELVAASSSSGGSTYYADSVKGRFTISRDNAKNTVYLQMNSLKPEDTAVYYCAKGGGPNSRGYWGQGTQVTVSS	high polyreactivity
QVQLVESGGRLGQAGGSLRISCAASGGTFWYYDMGWYRQAPGKERELVAAISSGGNTYYADSVKGRFTISRDNAKITVYLQMNSLKPEDTAVYYCAALPKYGSYYYYPPFDYDYWGQGTQVTVSS	low polyreactivity
QVQIVESGGGLVQAGGSLRLSCAASGRIFGYNAMGWYRQAPGKERELVATITVGGGSTYYADSVKGRFTISRDNAKNTVYLQMNSLKPEDTAVYYCAADSGYQPVLHRGYYRFNYWGQGTQVTVSS	low polyreactivity
QVQLVESGGGLVQAGGSLRLSCAASGSTFYDNAKGWYRPAPGKERELVAAISYSGASTYYADSVKGRFTISRDNAQNTVYLQMNSLKPEDTAVYYCSKTFYSLYWGQGTQVTVSS	low polyreactivity
QVQLVESGGGLVQAGGSLRLSCAASGSIFTLNAMGWYRQATGKEREFVAAITLRSGSTYYADSVKGRFTISRDNAKNTVYLQMNSLKPEDTAVYYCAARRTRYIYYYWGQGTQVTVSS	high polyreactivity
QVQLVESGGGLVQAGGSLLLICAASGLTFYAKVMGWYRQAPGKERELVASISRSGGRTYYADSVKGSFTISRDNAKNTVYLQMNSLKPEDTAVYYSAAADQVGQEDDYWGQGSQVTVSS	low polyreactivity
QVQLVESGGGLVQAGGSLRLSCAASGFTFYDYAMGWYRQAPGKEREFVAAITWSGSSTYYADSVKGRFTISRDNAKNTVYLQMNSLKPEVTAVYYCAVGPFRRRGHYPTYYRYGYWGQGTQVTVSS	high polyreactivity
QVQLVESGGGLVQAGGSLRLSCAASGFSFKSYAMGWYRQAPGKERELVAAISRGTSTKYADSVKGRFTISRDNAKNTVYLQMNSLKPEDTAVYNCAALFPTSDLRLRYYRYDYWGQGTQVTVSS	low polyreactivity
HVQLVESGGGLVQAGGSLRLSCAASGRIFYIYAMGWYRQAPGKERELVAGIRSRGGSTYYADSVKGRFTISRDNAKNTVYLQMNSLKPEDTAVYYCTTEIWGVNSSGYDYWGQGTQVTVSS	low polyreactivity
QVQLVESGGGLDQAGGSLRLSCAASGRTFAYYTMGWYRQAPGKERELVAAITSSGGSTYYADSVKGRFTISRDNAKNTVYLQMKSLKPEDTAVYYCNAYGLRWASRLGYDYWGQGTQVTVSS	high polyreactivity
QVQLVESGGGLVQAGGSLRLSCAASGRTFSRYVMGWYRQAPGKERELVATISRSGGSTFYADSVKGRFTISRDTAKNTVYLQMNSLKPEDTAVYYCNKKVQGYQVTYGYCGQGTQVTVSS	high polyreactivity
